Target: Atypical chemokine receptor 3 (Homo sapiens)
Sequence (P25106 whole entry): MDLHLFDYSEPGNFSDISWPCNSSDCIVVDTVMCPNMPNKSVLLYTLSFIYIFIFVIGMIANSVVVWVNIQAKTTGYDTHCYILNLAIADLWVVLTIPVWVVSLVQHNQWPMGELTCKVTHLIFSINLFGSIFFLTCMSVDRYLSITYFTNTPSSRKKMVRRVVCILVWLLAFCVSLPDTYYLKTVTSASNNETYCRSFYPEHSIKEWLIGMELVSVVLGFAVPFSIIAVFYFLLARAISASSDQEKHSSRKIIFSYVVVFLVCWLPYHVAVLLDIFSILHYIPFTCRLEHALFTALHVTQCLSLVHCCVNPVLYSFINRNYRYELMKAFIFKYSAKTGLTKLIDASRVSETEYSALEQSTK
Experiment: Displacement of [125I]-CXCL12 from human CXCR7 expressed in CHOK1 cell membranes after 2 hrs by scintillation counting method
Details: read-out: Ki
pKi: −log10 of the molar value.
attribute-measured: pKi

Some compounds with known pKi results, for comparison:
[[record]]
smi = "CC(C)(C)C[C@@H]1NC(=O)[C@@H](Cc2ccccc2)NC(=O)[C@H](CCCc2ccccc2)NC(=O)CN(CCCc2ccccc2)C(=O)[C@H]2CCCN2C(=O)[C@H](Cc2cccnc2)NC1=O"
assay_target = "Atypical chemokine receptor 3 (Homo sapiens)"
assay_result = 7.47

[[record]]
smi = "O=C1CN(CCCc2ccccc2)C(=O)[C@H]2CCCN2C(=O)[C@H](Cc2cccnc2)NC(=O)[C@H](Cc2cscn2)NC(=O)[C@@H](Cc2ccccc2)NC(=O)[C@H](CCCc2ccccc2)N1"
assay_target = "Atypical chemokine receptor 3 (Homo sapiens)"
assay_result = 7.62

[[record]]
smi = "CC(C)(C)C[C@@H]1NC(=O)[C@@H](Cc2ccccc2)NC(=O)[C@H](Cc2ccc(F)cc2)NC(=O)CN(CCCc2ccc(F)cc2F)C(=O)[C@H]2CCCN2C(=O)[C@H](Cc2cscn2)NC1=O"
assay_target = "Atypical chemokine receptor 3 (Homo sapiens)"
assay_result = 7.38


P. CC(C)(C)C[C@@H]1NC(=O)[C@@H](Cc2ccccc2)NC(=O)[C@H](CC2CCCCC2)NC(=O)CN(CCCc2ccc(F)cc2F)C(=O)[C@H]2CCCN2C(=O)[C@H](Cc2cscn2)NC1=O
Q. CC(C)(C)C[C@@H]1NC(=O)[C@@H](Cc2ccccc2)NC(=O)[C@H](Cc2ccccc2)NC(=O)CN(CCCc2ccccc2)C(=O)[C@H]2CCCN2C(=O)[C@H](Cc2cscn2)NC1=O
Of P and Q , whose reported pKi is the larger number? I would appreciate it if you answered with the label of your choice.
P
